# System: RAW-Dual (murine macrophage reporter line)
# MEASUREMENT_NOTES: viability score (confluency relative to resting cells, overnight) (fraction); higher = more viable, active = viable (0.7 or more)
# ASSAY_CONDITIONS: modulator concentration 10 µM
Outcome codes: class 1 (active), class 0 (inactive)

MOLECULE: CC1=CC(=O)c2ccccc2C1=O
DISCRETE_LABEL: class 0
//
MOLECULE: COC(=O)c1ccc(-n2nnnc2SCC(=O)Nc2ccc(C)c(C)c2)cc1
DISCRETE_LABEL: class 1
//
MOLECULE: CCCCCCCCCCC[C@@H](C[C@@H]1OC(=O)[C@H]1CCCCCC)OC(=O)[C@H](CC(C)C)NC=O
DISCRETE_LABEL: class 1
//
MOLECULE: O=C(NCCOc1cccc2ccccc12)Nc1cc(F)c(F)cc1Cl
DISCRETE_LABEL: class 1
//
MOLECULE: Cc1ccc(C)c(NC(=O)CCN2CCN(C=O)CC2)c1
DISCRETE_LABEL: class 1
//
MOLECULE: Cc1onc(-c2ccccc2)c1-c1ccc(S(N)(=O)=O)cc1
DISCRETE_LABEL: class 1
//
MOLECULE: Cc1ccc(OCCCOc2cccc3cccnc23)c(C)c1
DISCRETE_LABEL: class 1
//
MOLECULE: COC(=O)CCS(=O)(=O)c1ccc2ccccc2c1
DISCRETE_LABEL: class 1
//
MOLECULE: COc1cc2c(cc1OC)CN(CCc1ccc(NC(=O)c3cccc4c(=O)c5cccc(OC)c5[nH]c34)cc1)CC2
DISCRETE_LABEL: class 1
//
MOLECULE: Cc1cc(C(O)CCNC(=O)Nc2ccc(Cl)c(Cl)c2)c(C)o1 (configuration not stated)
DISCRETE_LABEL: class 1
//
MOLECULE: C=C(CC)C(=O)c1ccc(OCC(=O)O)c(Cl)c1Cl
DISCRETE_LABEL: class 1
//
MOLECULE: O=C(NC1CCN(c2ccc(C(F)(F)F)cn2)C1)c1nc2ccccc2s1 (configuration not stated)
DISCRETE_LABEL: class 1
//
MOLECULE: CC(O)Cn1cnc2c1c(=O)n(C)c(=O)n2C (configuration not stated)
DISCRETE_LABEL: class 1
//
MOLECULE: C#CCOC(=O)CCCC(=O)Nc1ccc([N+](=O)[O-])cc1Cl
DISCRETE_LABEL: class 1
//
MOLECULE: COc1ccc(C)c2sc(=NC(=O)c3ccccc3)n(C)c12
DISCRETE_LABEL: class 1
//
MOLECULE: O=C(NCC(O)c1ccc(C(F)(F)F)cc1)c1cc(Br)cs1 (configuration not stated)
DISCRETE_LABEL: class 0
//
MOLECULE: CC(C)NCC(O)c1ccc(NS(C)(=O)=O)cc1.Cl (configuration not stated)
DISCRETE_LABEL: class 1
//
MOLECULE: C=CCN1CCCC1CNC(=O)c1cc2nn[nH]c2cc1OC.Cl (configuration not stated)
DISCRETE_LABEL: class 1
//
MOLECULE: NC(=O)c1ncn(C2OC(CO)C(O)C2O)c1O (configuration not stated)
DISCRETE_LABEL: class 1
//
MOLECULE: Cc1cccc(NC(=O)Cc2c(C)nc(SCc3ccccc3F)[nH]c2=O)c1C
DISCRETE_LABEL: class 1
//
MOLECULE: COc1ccc2c(c1)c(CC(=O)OCC(=O)O)c(C)n2C(=O)c1ccc(Cl)cc1
DISCRETE_LABEL: class 1
//
MOLECULE: N#CC(=Cc1c(F)cccc1Cl)C(=O)Nc1ccc(Cl)cc1
DISCRETE_LABEL: class 1
//
MOLECULE: CN(C)CCOC1=Cc2ccccc2Sc2ccc(Cl)cc21
DISCRETE_LABEL: class 1
//
MOLECULE: COc1ccc(CCC(=O)NCc2nc(N(C)C)nc(N3CCCCC3)n2)cc1
DISCRETE_LABEL: class 1
//
MOLECULE: CC=CCn1c(=O)c2c(nc3n2CC(C(C)(C)C)=NN3)n(C)c1=O
DISCRETE_LABEL: class 1
//
MOLECULE: COc1ccc(CNCc2cccc3ccccc23)c(OC)c1
DISCRETE_LABEL: class 0
//
MOLECULE: O=S(=O)(NCc1ccccn1)c1cccc(Cl)c1
DISCRETE_LABEL: class 1
//
MOLECULE: CCN1C(C)=C(C(=O)OC)C(c2ccc([N+](=O)[O-])cc2)C(C(=O)OC)=C1C
DISCRETE_LABEL: class 1
//
MOLECULE: CC(Sc1ccc(Cl)cc1)C(=O)NCc1cccnc1 (configuration not stated)
DISCRETE_LABEL: class 1
//
MOLECULE: CCOc1ccccc1O[C@H](c1ccccc1)[C@H]1CNCCO1.CS(=O)(=O)O
DISCRETE_LABEL: class 1
//
MOLECULE: CCOC(=O)C1=CC2(CC)CCCN3CCc4c(n1c1ccccc41)C32 (configuration not stated)
DISCRETE_LABEL: class 1
//
MOLECULE: CCCCOc1ccc(OCCCN2CCOCC2)cc1.Cl
DISCRETE_LABEL: class 1
//
MOLECULE: O=C(O)CCC(=O)Nc1ccc(Br)cc1C(=O)c1ccc(Cl)cc1
DISCRETE_LABEL: class 1
//
MOLECULE: CCN1CCCC1CNC(=O)c1cc(S(=O)(=O)CC)c(N)cc1OC (configuration not stated)
DISCRETE_LABEL: class 1
//
MOLECULE: COc1ccc(C(=O)Nc2cc(C)nc3c(C)cc(C)cc23)cc1OC
DISCRETE_LABEL: class 0
//
MOLECULE: O=C(NC(=S)Nc1ccc2[nH]c(=O)[nH]c2c1)c1ccc(Cl)cc1
DISCRETE_LABEL: class 1
//
MOLECULE: CCOC(=O)C1=C(Nc2ccccc2)SC(=Cc2ccc(O)c(OCC)c2)C1=O
DISCRETE_LABEL: class 1

----------
NF-kB reporter reference
# Test system: RAW-Dual (murine macrophage reporter line)
# MEASUREMENT_NOTES: NF-kB reporter (SEAP) activity fold change vs agonist alone; higher = enhanced NF-kB activity
# ASSAY_CONDITIONS: modulator concentration 10 µM; agonist: CpG ODN 1826 0.5 ug/mL

COMPOUND: COc1cc2nc(N3CCN(C(=O)c4ccco4)CC3)nc(N)c2cc1OC.Cl
NF-kB reporter: 0.888

COMPOUND: O=C(CCc1csc(NC(=O)c2ccco2)n1)Nc1ccc(Cl)cc1
NF-kB reporter: 0.9

COMPOUND: CCn1c(=O)c(-c2ccn[nH]2)cc2c(C)nc(N)nc21
NF-kB reporter: 0.877

COMPOUND: N#C[C@@H]1C[C@@H]2C[C@@H]2N1C(=O)[C@@H](N)C12CC3CC(CC(O)(C3)C1)C2.O
NF-kB reporter: 1.06

COMPOUND: CC1CCN(C2CC(=O)N(c3ccc(S(=O)(=O)N4CCOCC4)cc3)C2=O)CC1 (stereo not given)
NF-kB reporter: 0.986

COMPOUND: Cc1nccn1CC1CCc2c(c3ccccc3n2C)C1=O.Cl (stereo not given)
NF-kB reporter: 0.82

COMPOUND: COC(=O)N[C@H](C(=O)N[C@@H](Cc1ccccc1)[C@@H](O)CN(Cc1ccc(-c2ccccn2)cc1)NC(=O)[C@@H](NC(=O)OC)C(C)(C)C)C(C)(C)C.O=S(=O)(O)O
NF-kB reporter: 1.78

COMPOUND: COc1cc2c(Oc3ccc4[nH]c(C)cc4c3F)ncnc2cc1OCCCN1CCCC1
NF-kB reporter: 0.607

COMPOUND: CCC(CNC(=O)Cc1c(F)cccc1Cl)(OC)c1ccccc1 (stereo not given)
NF-kB reporter: 0.854

COMPOUND: Cc1cccc(C)c1OCC(C)N.Cl (stereo not given)
NF-kB reporter: 1.17

----------
# Test system: RAW-Dual (murine macrophage reporter line)
# MEASUREMENT_NOTES: IRF reporter (Lucia luciferase) activity fold change vs agonist alone; higher = enhanced IRF activity
# ASSAY_CONDITIONS: modulator concentration 10 µM; agonist: 3'3'-cGAMP 10 ug/mL
OUTCOME_MEASURE: IRF reporter

MOLECULE: CC1CC(=CC=CN(C)C)C(=O)C(=CC=CN(C)C)C1 (centres undefined)
MEASURED_ON: RAW-Dual (murine macrophage reporter line)
RESULT: 0.888

MOLECULE: NC(=O)CC[C@@H](N)C(=O)O
MEASURED_ON: RAW-Dual (murine macrophage reporter line)
RESULT: 0.946

MOLECULE: C#CCCCCCCCCCCCC(=O)CC(O)COC(C)=O (centres undefined)
MEASURED_ON: RAW-Dual (murine macrophage reporter line)
RESULT: 0.176

MOLECULE: CCCC(CCC)C(=O)O
MEASURED_ON: RAW-Dual (murine macrophage reporter line)
RESULT: 0.957

MOLECULE: COc1cc(C=C2NC(=O)NC2=O)cc(I)c1OCc1ccccc1
MEASURED_ON: RAW-Dual (murine macrophage reporter line)
RESULT: 1.05

MOLECULE: COc1cccc(N2C(=O)CN(Cc3ccccc3)C3CS(=O)(=O)CC32)c1 (centres undefined)
MEASURED_ON: RAW-Dual (murine macrophage reporter line)
RESULT: 0.322

MOLECULE: CNC(=NC#N)NCCSCc1nc[nH]c1C
MEASURED_ON: RAW-Dual (murine macrophage reporter line)
RESULT: 1.01

MOLECULE: CC(=O)N1CCC(C(=O)NCc2cccnc2-c2cnn(C)c2)CC1
MEASURED_ON: RAW-Dual (murine macrophage reporter line)
RESULT: 1.04

MOLECULE: COCC(C)(CNS(=O)(=O)c1ccccc1Br)OC (centres undefined)
MEASURED_ON: RAW-Dual (murine macrophage reporter line)
RESULT: 0.982
